# Test Summary: Renal clearance after 1 mg/kg intravenous, rat
# Assay type: in vivo, male Wistar-Hannover rats
# Condition Parameters: male, Wistar-Hannover, plasma and urine, iv, 1 mg/kg intravenously, urine 0-24 h
Recorded Metric: CL renal (L/h/kg)

[
  {
    "Mol Smiles": "C#C[C@]1(CO)O[C@@H](n2cnc3c(N)nc(F)nc32)C[C@@H]1O",
    "Recorded Metric": "CL renal",
    "Test Result": 0.69
  }
]

====

# Assayed System: OCT2 (Homo sapiens, UniProt O15244)
# Construct: expressed in transfected cells; host or cells: CHO-K1
# Sequence (O15244 1-555): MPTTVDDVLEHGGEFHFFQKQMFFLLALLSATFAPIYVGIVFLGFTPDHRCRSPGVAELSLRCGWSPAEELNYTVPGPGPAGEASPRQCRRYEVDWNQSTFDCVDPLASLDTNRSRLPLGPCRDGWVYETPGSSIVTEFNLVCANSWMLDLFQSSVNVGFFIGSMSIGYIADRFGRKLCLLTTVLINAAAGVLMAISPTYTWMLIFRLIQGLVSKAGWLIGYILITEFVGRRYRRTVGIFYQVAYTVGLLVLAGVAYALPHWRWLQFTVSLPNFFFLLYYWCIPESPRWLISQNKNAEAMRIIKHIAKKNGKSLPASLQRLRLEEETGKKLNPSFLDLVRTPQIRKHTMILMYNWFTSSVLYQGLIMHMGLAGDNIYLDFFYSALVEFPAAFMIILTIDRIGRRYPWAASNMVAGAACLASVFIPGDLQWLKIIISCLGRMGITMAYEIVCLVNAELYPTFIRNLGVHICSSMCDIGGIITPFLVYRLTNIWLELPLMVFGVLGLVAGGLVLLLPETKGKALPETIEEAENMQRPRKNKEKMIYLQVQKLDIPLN
# Test Summary: Inhibition of transporter-mediated probe uptake in CHO-K1-OCT2 cells
# Assay type: in vitro ADME
# Condition Parameters: CHO-K1-OCT2 cells, probe metformin; 100 µM islatravir

[
  {
    "Mol Smiles": "C#C[C@]1(CO)O[C@@H](n2cnc3c(N)nc(F)nc32)C[C@@H]1O",
    "inhibition at 100 µM [%]": 15
  }
]
